Molecular target: furin, P09958;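 also: purified furin at 1:10 enzyme:substrate in 50 mM HEPES pH 7.5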
Sequence (P09958 whole entry): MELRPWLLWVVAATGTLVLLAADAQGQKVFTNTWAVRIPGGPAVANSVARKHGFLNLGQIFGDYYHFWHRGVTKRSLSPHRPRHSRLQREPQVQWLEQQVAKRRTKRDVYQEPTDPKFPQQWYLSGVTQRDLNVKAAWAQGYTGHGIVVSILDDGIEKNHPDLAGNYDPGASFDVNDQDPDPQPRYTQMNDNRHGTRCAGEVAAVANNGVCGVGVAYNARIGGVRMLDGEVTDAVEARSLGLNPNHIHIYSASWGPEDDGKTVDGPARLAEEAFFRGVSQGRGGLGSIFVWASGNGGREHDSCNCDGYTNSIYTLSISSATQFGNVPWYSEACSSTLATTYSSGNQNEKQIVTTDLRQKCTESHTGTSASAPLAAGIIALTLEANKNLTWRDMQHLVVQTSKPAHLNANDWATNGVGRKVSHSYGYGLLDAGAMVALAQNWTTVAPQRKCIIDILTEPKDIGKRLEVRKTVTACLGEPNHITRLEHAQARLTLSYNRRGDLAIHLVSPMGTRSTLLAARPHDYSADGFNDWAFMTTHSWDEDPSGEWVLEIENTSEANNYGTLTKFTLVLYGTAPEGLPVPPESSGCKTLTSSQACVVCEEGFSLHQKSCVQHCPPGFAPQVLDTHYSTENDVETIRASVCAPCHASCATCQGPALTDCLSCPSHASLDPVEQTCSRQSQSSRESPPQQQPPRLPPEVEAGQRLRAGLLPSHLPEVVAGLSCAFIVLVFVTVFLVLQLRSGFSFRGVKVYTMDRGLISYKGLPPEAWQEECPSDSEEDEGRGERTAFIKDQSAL
Experiment: furin cleavage Z-score vs untreated control; higher = more cleavage, active = 3.5 or more, inactive = 1 or less, 8 variable residues between constant flanks
Conditions: 7.5 min
This is one part of the list. The true hit rate is not given.
measured.attribute: furin cleavage Z-score
Lab note: jot down the number only; don't add units.

Would you please look over these solved cases?
1. CASTPCSAHDAGNASASA [HC2571] : -1.23
2. CALTQRTARAAGNASASA [FS-59] : 6.17
3. CAMEECNQHLAGNASASA [HC38] : 0.469
4. CAEVPCHRLSAGNASASA [HC2385] : 0.65
5. CARSIRSVAIAGNASASA [FS-3081] : -0.459
6. CASTARLARAAGNASASA [FS-1287] : 5.91

Please examine the following record next.
query: Form field: reported furin cleavage Z-score of CASTPCSAHAAGNASASA [HC2563]
result: 1.54
